Attribution: ChEMBL document CHEMBL1961873

# TARGET SYSTEM: Rho-associated protein kinase 2 (Homo sapiens) (UniProt O75116);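 also: values are averaged inhibition readings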
# Sequence (O75116 whole entry, looked up): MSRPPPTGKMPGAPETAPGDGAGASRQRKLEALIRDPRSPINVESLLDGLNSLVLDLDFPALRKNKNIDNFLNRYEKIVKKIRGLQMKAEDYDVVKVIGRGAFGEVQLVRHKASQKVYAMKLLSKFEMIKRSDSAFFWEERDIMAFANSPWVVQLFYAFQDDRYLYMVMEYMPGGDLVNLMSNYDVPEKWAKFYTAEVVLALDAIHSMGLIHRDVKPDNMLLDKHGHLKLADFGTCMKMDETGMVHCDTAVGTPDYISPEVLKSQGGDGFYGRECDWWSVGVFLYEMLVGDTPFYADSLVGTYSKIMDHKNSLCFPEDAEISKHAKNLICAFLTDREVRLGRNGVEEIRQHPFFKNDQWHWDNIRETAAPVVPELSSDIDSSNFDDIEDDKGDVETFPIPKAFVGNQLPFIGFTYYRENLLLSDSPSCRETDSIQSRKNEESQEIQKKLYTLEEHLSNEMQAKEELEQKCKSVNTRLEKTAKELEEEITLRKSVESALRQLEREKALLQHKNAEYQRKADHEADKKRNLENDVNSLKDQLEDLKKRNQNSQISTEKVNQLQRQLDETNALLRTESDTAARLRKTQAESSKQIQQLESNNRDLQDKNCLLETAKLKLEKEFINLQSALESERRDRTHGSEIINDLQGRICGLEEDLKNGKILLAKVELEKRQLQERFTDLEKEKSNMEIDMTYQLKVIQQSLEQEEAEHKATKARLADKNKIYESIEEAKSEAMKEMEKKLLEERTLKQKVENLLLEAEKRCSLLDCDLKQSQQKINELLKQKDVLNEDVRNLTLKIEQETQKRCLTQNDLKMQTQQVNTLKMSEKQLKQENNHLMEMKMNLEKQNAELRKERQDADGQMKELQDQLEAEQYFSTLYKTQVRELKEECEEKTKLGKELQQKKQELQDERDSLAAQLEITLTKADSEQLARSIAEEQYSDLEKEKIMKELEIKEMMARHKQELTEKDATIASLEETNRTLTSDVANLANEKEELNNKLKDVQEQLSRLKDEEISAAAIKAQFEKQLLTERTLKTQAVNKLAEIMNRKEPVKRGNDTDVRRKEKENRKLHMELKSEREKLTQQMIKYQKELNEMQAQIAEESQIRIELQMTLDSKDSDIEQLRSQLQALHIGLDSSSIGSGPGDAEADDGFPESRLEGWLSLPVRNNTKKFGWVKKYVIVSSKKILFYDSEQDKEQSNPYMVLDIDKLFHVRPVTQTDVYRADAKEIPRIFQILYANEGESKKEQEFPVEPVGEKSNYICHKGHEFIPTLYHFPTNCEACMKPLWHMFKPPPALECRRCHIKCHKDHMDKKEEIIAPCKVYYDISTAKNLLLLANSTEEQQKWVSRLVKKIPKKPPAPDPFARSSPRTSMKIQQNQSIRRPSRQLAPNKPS
# CONDITION DETAILS: at 0.1 µM
Field: inhibition. Provide a value for each of the molecules that follow.
Numbers only, in %.

Exercise: Which measured inhibition value corresponds to `COc1cc2c(cc1Nc1nc(Nc3ccsc3C(N)=O)c3cc[nH]c3n1)N(C(=O)CN(C)C)CCC2(C)C` ?
Key: 29.2

Exercise: Which measured inhibition value corresponds to `CNC(=O)c1cncc(/C=C/c2ccccc2Cl)c1` ?
Key: 3.13

Exercise: Which measured inhibition value corresponds to `CCN1CCC(CC(=O)Nc2n[nH]c3nnc(-c4cccc(F)c4F)cc23)CC1` ?
Key: 1.58

Exercise: Which measured inhibition value corresponds to `CCc1nn2ncccc2c1-c1ccnc(NC2CC2)n1` ?
Key: 1.74

Exercise: Which measured inhibition value corresponds to `NC(=O)c1sc(-n2cnc3ccc(C(F)(F)F)cc32)cc1OCc1ccccc1Br` ?
Key: 2.8

Exercise: Which measured inhibition value corresponds to `Fc1cccc(COc2ccc(Nc3ncnc4sc(-c5ccco5)cc34)cc2Cl)c1` ?
Key: 3.35

Exercise: Which measured inhibition value corresponds to `[O-][S+]1CCN(Cc2ccc(-c3ccc4ncnc(Nc5ccc(OCc6cccc(F)c6)c(Cl)c5)c4c3)o2)CC1` ?
Key: 2.9

Exercise: Which measured inhibition value corresponds to `CCn1cc(-c2ccnc3[nH]ccc23)c(-c2cccc(NC(=O)Nc3ccc(OCc4ccccc4)cc3)c2)n1` ?
Key: 1.34

Now let's try a different one.
Exercise: Which measured inhibition value corresponds to `CCCN(CCS(C)(=O)=O)Cc1ccc(-c2ccc3ncnc(Nc4ccc(OCc5cccc(F)c5)c(Cl)c4)c3c2)o1` ?
Key: 1.92

----------
Field: inhibition. Provide a value for each of the compounds that follow.
# TARGET SYSTEM: Tyrosine-protein kinase Fyn (Homo sapiens)
# CONDITION DETAILS: at 0.1 µM
# Description: GSK_PKIS: FYN mean inhibition at 0.1 uM [Nanosyn]

I'm hoping you can list inhibition for every compound here, please.
1. COc1ccc(-c2nn3ncccc3c2-c2ccnc(Nc3ccc4c(c3)OCCO4)n2)cc1
2. COC(=O)c1sc(-n2cnc3cc(OC)c(OC)cc32)cc1OCc1ccccc1C(F)(F)F
3. c1cc(-c2cnn3nc(N4CCOCC4)ccc23)nc(NC2CC2)n1
4. CCCN1CCC(c2ccc(Nc3nc(Nc4cc(F)ccc4C(N)=O)c4cc[nH]c4n3)c(OC)c2)CC1
5. Cc1cccc(Nc2ncc(-c3ccccc3)o2)c1
6. CN1CCC(n2cnc(-c3ccc(F)cc3)c2-c2ccnc(Nc3ccccc3)n2)CC1

Key:
["5.65%", "15.6%", "0.47%", "3.91%", "3.07%", "0.05%"]

I'm hoping you can list inhibition for every compound here, please.
1. O=S(=O)(CCNCc1ccc(-c2ccc3ncnc(Nc4ccc(OCc5cccc(F)c5)c(Cl)c4)c3c2)o1)c1ccccc1
2. Fc1ccc(-c2cc(-c3c[nH]nc3-c3ccccn3)ccn2)cc1
3. CCc1nn2ncccc2c1-c1ccnc(NC2CC2)n1
4. CC1=C(C(=O)Nc2cc(Cl)c3[nH]ncc3c2)C(c2ccc(C(F)(F)F)cc2)CC(=O)N1 (stereo not given)

Key:
1: 2.58%; 2: 3.45%; 3: 1.74%; 4: 0.13%

----------
Field: inhibition. Provide a value for each of the compounds that follow.
# TARGET SYSTEM: Serine/threonine-protein kinase 10 (Homo sapiens);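 also: reported value is the mean percent inhibition of LOK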
# CONDITION DETAILS: at 1 µM
Numbers only, in %.

Exercise: Which measured inhibition value corresponds to `Cc1ccc2c(-c3ccnc(Nc4ccccc4)n3)c(-c3ccc(F)cc3)nn2n1` ?
Key: 22.8

Exercise: Which measured inhibition value corresponds to CC1=C(C(=O)Nc2cc(Cl)c3[nH]ncc3c2)C(c2ccc(C(F)(F)F)cc2)CC(=O)N1 (stereo not given) ?
Key: 7.45

Exercise: Which measured inhibition value corresponds to `Cc1cccc(Nc2ncc(-c3ccccc3)o2)c1` ?
Key: 7.96

Exercise: Which measured inhibition value corresponds to `COc1ccc(CNC(=O)c2ccc(-c3cc(-c4nnc(C)o4)ccc3C)cc2)cc1` ?
Key: 20.7

Exercise: Which measured inhibition value corresponds to `N#Cc1c(NC(=O)c2ccc(F)cc2)sc2c1CCCC2` ?
Key: 6.81

I'm hoping you can list inhibition for every compound here, please.
1. COc1ccc(-c2oc3ncnc(N)c3c2-c2ccc(NC(=O)Nc3cc(C(F)(F)F)ccc3F)cc2)cc1
2. COc1ccc(-c2cc3c(N)ncnc3o2)cc1
3. NS(=O)(=O)c1ccc(N/N=C2\C(=O)Nc3ccc4ncccc4c32)cc1
4. CCN1CCC(CC(=O)Nc2n[nH]c3nnc(-c4cccc(F)c4F)cc23)CC1
5. Nc1nc(-c2cccc(Cl)c2)c(-c2ccc3ncccc3n2)s1

Key:
1. 91.3
2. 0.33
3. 13.1
4. 4.08
5. 14.4

----------
# TARGET SYSTEM: Tyrosine-protein kinase JAK3 (Homo sapiens)
# CONDITION DETAILS: at 1 µM
# Description: GSK_PKIS: JAK3 mean inhibition at 1 uM [Nanosyn]
Field: inhibition. Provide a value for each of the compounds that follow.
Numbers only, in %.

Solved entries:
Exercise: Query inhibition on Tyrosine-protein kinase JAK3 (Homo sapiens) for `CN(C)CCOc1ccc(-c2nc(-c3ccncc3)c(-c3ccc4c(c3)CC/C4=N\O)[nH]2)cc1`
Key: 0.64

Exercise: Query inhibition on Tyrosine-protein kinase JAK3 (Homo sapiens) for `CCN(CC)S(=O)(=O)c1ccc(OC)c(Nc2ncc(-c3ccccc3)o2)c1`
Key: 2.16

Exercise: Query inhibition on Tyrosine-protein kinase JAK3 (Homo sapiens) for `CCCN(CCS(C)(=O)=O)Cc1ccc(-c2ccc3ncnc(Nc4ccc(OCc5cccc(F)c5)c(Cl)c4)c3c2)o1`
Key: 2.79

Exercise: Query inhibition on Tyrosine-protein kinase JAK3 (Homo sapiens) for `CCN1CCC(CC(=O)Nc2n[nH]c3nnc(-c4cccc(F)c4F)cc23)CC1`
Key: 1.45

Exercise: Query inhibition on Tyrosine-protein kinase JAK3 (Homo sapiens) for `Nc1ncc(-c2cccc(S(N)(=O)=O)c2)c2scc(-c3ccc(F)c(Cl)c3)c12`
Key: -0.64

I'm hoping you can list inhibition for every compound here, please.
1. CCn1c(-c2nonc2N)nc2cnc(Oc3cccc(NC(=O)c4ccc(N(C)C)cc4)c3)cc21
2. Cc1ccc2c(-c3ccnc(Nc4ccccc4)n3)c(-c3ccc(F)cc3)nn2n1

Key:
-1.1
2.61

I'm hoping you can list inhibition for every compound here, please.
1. NC(=O)c1sc(-n2cnc3ccc(C(F)(F)F)cc32)cc1OCc1ccccc1Br
2. O=S(=O)(CCNCc1ccc(-c2ccc3ncnc(Nc4ccc(OCc5cccc(F)c5)c(Cl)c4)c3c2)o1)c1ccccc1

Key:
[0.92, -1.28]

----------
# TARGET SYSTEM: Aurora kinase B (Homo sapiens) (UniProt Q96GD4);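 also: reported percent inhibition is a mean value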
# Sequence (Q96GD4 whole entry): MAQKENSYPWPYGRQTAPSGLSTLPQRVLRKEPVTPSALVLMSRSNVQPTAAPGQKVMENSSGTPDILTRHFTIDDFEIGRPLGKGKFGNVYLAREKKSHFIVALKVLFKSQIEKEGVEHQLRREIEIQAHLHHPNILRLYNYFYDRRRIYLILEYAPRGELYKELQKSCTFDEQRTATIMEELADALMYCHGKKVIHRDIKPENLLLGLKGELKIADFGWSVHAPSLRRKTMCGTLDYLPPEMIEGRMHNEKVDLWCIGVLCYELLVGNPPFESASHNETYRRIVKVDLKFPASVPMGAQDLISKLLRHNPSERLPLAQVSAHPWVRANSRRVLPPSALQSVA
# CONDITION DETAILS: at 1 µM
The threshold is inclusive: inhibition of exactly 10% counts as met; values below receive not met.

Answered cases to consult:
Exercise: Item `c1ccc(-c2nc3n(c2-c2ccc4c(c2)OCO4)CCC3)nc1` with inhibition of 10% or above?
Key: not met

Exercise: Item `c1ccc(COc2ccc(Nc3ncnc4ccc(-c5ccco5)cc34)cc2)cc1` with inhibition of 10% or above?
Key: not met

Exercise: Item `FC(F)(F)c1cccc(-c2nn3ncccc3c2-c2ccnc(Nc3ccc4c(c3)OCCO4)n2)c1` with inhibition of 10% or above?
Key: met

Continuing:
Exercise: Item `COc1cc(/C=N/Nc2ncnc3[nH]ncc23)ccc1O` with inhibition of 10% or above?
Key: met

Exercise: Item `COc1cccc(-n2ncc3c(N/N=C/c4ccc(F)cc4)ncnc32)c1` with inhibition of 10% or above?
Key: met

----------
# TARGET SYSTEM: Tyrosine-protein kinase ABL2 (Homo sapiens) (UniProt P42684)
# Sequence (P42684 whole entry): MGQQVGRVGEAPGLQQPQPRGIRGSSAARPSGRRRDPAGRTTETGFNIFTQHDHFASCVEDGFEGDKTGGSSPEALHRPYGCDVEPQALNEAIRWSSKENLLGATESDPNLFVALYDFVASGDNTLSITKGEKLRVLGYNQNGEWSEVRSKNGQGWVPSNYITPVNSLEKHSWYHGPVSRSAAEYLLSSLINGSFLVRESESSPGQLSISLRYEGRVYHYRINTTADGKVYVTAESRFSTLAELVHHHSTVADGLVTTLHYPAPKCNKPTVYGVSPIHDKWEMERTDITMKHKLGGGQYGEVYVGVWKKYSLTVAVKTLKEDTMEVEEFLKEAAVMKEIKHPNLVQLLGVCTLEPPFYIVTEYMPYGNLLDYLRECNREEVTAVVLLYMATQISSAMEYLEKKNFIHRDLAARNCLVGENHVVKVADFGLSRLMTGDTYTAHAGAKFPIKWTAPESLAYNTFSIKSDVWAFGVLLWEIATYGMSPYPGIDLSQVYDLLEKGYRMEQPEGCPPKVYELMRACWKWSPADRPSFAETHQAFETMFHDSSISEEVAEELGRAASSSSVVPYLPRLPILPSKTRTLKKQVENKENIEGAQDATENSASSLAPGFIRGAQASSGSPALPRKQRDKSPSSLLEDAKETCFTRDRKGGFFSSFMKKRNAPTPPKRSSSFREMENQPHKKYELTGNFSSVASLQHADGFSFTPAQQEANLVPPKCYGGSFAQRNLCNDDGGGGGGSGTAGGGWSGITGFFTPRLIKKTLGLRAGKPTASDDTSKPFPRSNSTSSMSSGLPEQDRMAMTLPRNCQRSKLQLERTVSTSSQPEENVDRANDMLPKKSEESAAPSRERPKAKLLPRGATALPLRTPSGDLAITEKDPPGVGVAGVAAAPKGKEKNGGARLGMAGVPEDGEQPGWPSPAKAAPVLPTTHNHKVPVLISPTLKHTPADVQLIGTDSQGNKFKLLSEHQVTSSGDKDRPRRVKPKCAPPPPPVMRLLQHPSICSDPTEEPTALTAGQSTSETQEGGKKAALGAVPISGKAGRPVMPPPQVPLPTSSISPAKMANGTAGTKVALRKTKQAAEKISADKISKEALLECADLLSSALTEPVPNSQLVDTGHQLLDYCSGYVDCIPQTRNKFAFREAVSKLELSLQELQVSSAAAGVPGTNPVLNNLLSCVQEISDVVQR
# CONDITION DETAILS: at 1 µM
# Description: GSK_PKIS: ARG mean inhibition at 1 uM [Nanosyn]
The threshold is inclusive: inhibition of exactly 6% counts as 1; values below receive -1.

Answered cases to consult:
Exercise: Item `CN(C)CCOc1ccc(-c2nc(-c3ccncc3)c(-c3ccc4c(c3)CC/C4=N\O)[nH]2)cc1` with inhibition of 6% or above?
Key: 1

Exercise: Item `NS(=O)(=O)c1ccc(N/N=C2\C(=O)Nc3ccc4ncccc4c32)cc1` with inhibition of 6% or above?
Key: 1

Exercise: Item `Nc1ncc(-c2cccc(S(N)(=O)=O)c2)c2scc(-c3ccc(F)c(Cl)c3)c12` with inhibition of 6% or above?
Key: 1

Exercise: Item `Fc1ccc(-c2nn3ccccc3c2-c2ccncc2)cc1` with inhibition of 6% or above?
Key: 1

Exercise: Item `COc1cccc(-c2c[nH]c3c(N/N=C/c4ccncc4)ncnc23)c1` with inhibition of 6% or above?
Key: 1

Continuing:
Exercise: Item `CC(C)(CO)CNC(=O)c1ccc2c(c1)/C(=N/Nc1ccc(S(N)(=O)=O)cc1)C(=O)N2` with inhibition of 6% or above?
Key: -1

Exercise: Item `COc1ccc(-c2cc3c(N)ncnc3o2)cc1` with inhibition of 6% or above?
Key: -1

Exercise: Item `CCn1c(-c2nonc2N)nc2c(C#CC(C)(C)O)ncc(OC3CCNCC3)c21` with inhibition of 6% or above?
Key: -1

Exercise: Item `CN1CCC(n2cnc(-c3ccc(F)cc3)c2-c2ccnc(Nc3ccccc3)n2)CC1` with inhibition of 6% or above?
Key: 1

Exercise: Item `NC(=O)c1sc(-n2cnc3ccc(C(F)(F)F)cc32)cc1OCc1ccccc1Br` with inhibition of 6% or above?
Key: -1

Exercise: Item `Cc1ccc2c(-c3ccnc(Nc4ccccc4)n3)c(-c3ccc(F)cc3)nn2n1` with inhibition of 6% or above?
Key: 1

Exercise: Item `Cc1ccc(O)cc1Nc1ccnc2cc(-c3ccccn3)ccc12` with inhibition of 6% or above?
Key: 1
